- system: T1, MUC1-SEA-His protein (UniProt P15941 1039-1148, limits assumed)
- T1 construct: domain: SEA; Recombinant antigen used for ELISA coating and as Biacore analyte; also called MUC-SEA-His; antigen protein; not shown: His tag
- T1 sequence (looked up): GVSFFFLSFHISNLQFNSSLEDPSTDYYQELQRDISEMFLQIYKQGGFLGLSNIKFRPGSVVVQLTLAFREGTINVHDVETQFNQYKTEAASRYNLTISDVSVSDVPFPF
- assay details: SPR Biacore T200, antibody captured, antigen as analyte
List of koff values.
assay endpoint: koff (s⁻¹)

• VH4 + VL4 (antibody, V domains shown, Humanized IgG expressed in HEK293; also called humanized antibody VH4+VL4) VH: QVQLVQSGAEVKKPGATVKISCKVSGYAFSNFWMNWVQQAPGKGLEWMGQIYPGDGDTNYNGKFKGRVTITADTSTDTAYMELSSLRSEDTAVYYCARSYYRSAWFAYWGQGTLVTVSR VL: AIQLTQSPSSLSASVGDRVTITCRASQSIGTSIHWYQQKPGKAPKLLIYYASESISGVPSRFSGSGSGTDFTLTISSLQPEDFATYYCQQSNNWPLTFGGGTKVEIK = 0.0243
• VH5 + VL4 (antibody, V domains shown, Humanized IgG expressed in HEK293; also called humanized antibody VH5+VL4) VH: EVQLVQSGAEVKKPGESLKISCKGSGYAFSNFWMNWVRQMPGKGLEWMGQIYPGDGDTNYNGKFKGQVTISADKSISTAYLQWSSLKASDTAMYYCARSYYRSAWFAYWGQGTLVTVSL VL: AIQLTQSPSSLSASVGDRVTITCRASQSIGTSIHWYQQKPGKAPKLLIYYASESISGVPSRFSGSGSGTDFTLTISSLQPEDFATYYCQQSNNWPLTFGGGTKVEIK = 0.0179

Values compiled from patent US20180036441A1.
